target: apical domain of CD71 (Screen 3: 'cynomolgus apical domain of human CD71') (cynomolgus (as paragraph 454 words it; ambiguous))
method notes: primary ELISA, RLU ratio to HSA
Form field: Apical domain:HSA (one value per entry).
Answer as a number with no unit attached.

binder	recorded measurement
CD71-binding FN3 domain SEQ ID NO: 310 (designed binder) MSLPAPKNLVVSRVTEDSARLSWTAPDAAFDSFEIDYGEYSQAGEAIGLLVPGSERSYDLTGLKPGTEYAVWIGGVKGGFFSTPLEADFTT	168

Could you now consider this next binder?
Fill in reported Apical domain:HSA for this entry: CD71-binding FN3 domain SEQ ID NO: 264 (designed binder) MSLPAPKNLVVSRVTEDSARLSWTAPDAAFDSFFIGYLEPQPPGEAIALYVPGSERSYDLTGLKPGTEYNVTIQGVKGGFPSEPLVVHFTT 549
